System: MDA-N
measurement.description: NCI tumour cell line growth inhibition, 48 h
Reported TGI values for a set of compounds

Some solved cases for reference:
COC(=O)Cn1c(=O)oc2nc(-c3ccccc3)cc(C(F)(F)F)c21: > 100 µM
N=C(N)c1ccc(N=Nc2c(O)ccc3cc4c(N=Nc5ccc(C(=N)N)cc5)c(O)ccc4cc23)cc1: > 100 µM
COc1ccc(-c2nc3c(C(=O)NCCN(C)C)cccc3c3ccccc23)cc1: 5.45 µM
CCC12C=CCN3CCC4(c5cc(C(c6ccc(OC)cc6)C6Cc7ccccc7N6)c(OC)cc5N(C)C4C(O)(C(=O)OC)C1O)C32 (stereo not given): > 100 µM

The record that follows has no TGI shown yet.
For record C=CCCCC1(C)CCNC1=S (stereo not given) the listed TGI is > 100 µM
